Overview of reported IC50 across a group of compounds:
Molecular target: SSAO (bovine plasma amine oxidase, PAO) (Bos taurus, UniProt Q29437)
Construct: Bovine plasma amine oxidase (PAO) was purchased from Worthington Biochemical; purchased Worthington Biochemical (Lakewood, N.J.)
Sequence (Q29437 17-762): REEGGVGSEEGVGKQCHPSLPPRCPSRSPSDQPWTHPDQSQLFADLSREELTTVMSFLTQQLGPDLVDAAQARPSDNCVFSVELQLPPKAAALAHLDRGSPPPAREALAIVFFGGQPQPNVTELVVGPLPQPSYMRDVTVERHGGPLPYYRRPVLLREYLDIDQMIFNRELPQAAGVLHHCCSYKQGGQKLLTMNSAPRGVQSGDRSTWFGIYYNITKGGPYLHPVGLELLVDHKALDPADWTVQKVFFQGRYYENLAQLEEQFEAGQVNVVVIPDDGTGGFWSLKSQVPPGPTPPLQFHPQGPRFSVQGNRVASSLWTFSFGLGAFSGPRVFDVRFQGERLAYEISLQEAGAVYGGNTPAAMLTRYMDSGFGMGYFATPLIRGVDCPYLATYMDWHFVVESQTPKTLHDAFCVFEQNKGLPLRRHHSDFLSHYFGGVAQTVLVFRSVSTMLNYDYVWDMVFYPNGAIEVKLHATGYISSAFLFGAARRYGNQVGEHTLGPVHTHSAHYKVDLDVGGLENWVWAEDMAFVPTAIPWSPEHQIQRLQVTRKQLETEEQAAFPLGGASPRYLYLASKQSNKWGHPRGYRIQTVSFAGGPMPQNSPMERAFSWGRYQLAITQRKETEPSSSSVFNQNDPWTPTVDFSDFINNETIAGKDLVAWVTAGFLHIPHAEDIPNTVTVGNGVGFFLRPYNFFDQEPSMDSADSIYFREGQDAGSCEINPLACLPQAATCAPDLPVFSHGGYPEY
Test: In vitro inhibition of SSAO activity, coupled colorimetric method
Format: biochemical
Settings: 30 min preincubation, benzylamine substrate; read-out: SSAO Inhibitory Activity IC50
Where a name gives a salt, the structure may show the parent alone.
Give the quantity in nM, number only.

Compound: C=C(CNN)c1ccc(Cl)cc1.Cl [Example 3, Hydrochloride]
Data Value: 50
//
Compound: Cl.NNC/C(=C/F)c1ccccc1 [Example 10, Hydrochloride]
Data Value: 65
//
Compound: C=C(CNN)c1ccccc1 [Example 2, Hydrochloride]
Data Value: 35

Given the entry C=C(CNN)c1ccc(F)cc1.Cl [Example 8, Hydrochloride] , report its measured IC50. 32
